// provenance: a melting point compilation (Tetko et al.; mined from patent text by program, amines drawn as free bases though some values may be those of a salt)

Reported melting point values are given for each entry in this list.

[Q] Param item = COC(=O)C(Cc1ccc(OCc2ccccc2)cc1)NC(=O)c1cc2ccc(-c3ccc(Cl)cc3)cc2[nH]1 (stereo not given) ; retrieve measured melting point.
[A] 196 to 198 °C

[Q] Entry Nc1cnc(Oc2ccc(Cl)c3c2CCCC3)c(Cl)c1 please
[A] 130 to 132 °C

[Q] Entry CCCn1nc2c(N)nc3c(c2c1CCCc1cc(C)no1)CCCC3 please
[A] 144 to 145 °C

[Q] Entry Cc1c(F)c(F)c(Cl)c2c1c(=O)c(C(=O)O)cn2-c1cc(N)c(F)cc1F please
[A] 271 to 274 °C

[Q] Entry CC(C)(Oc1ccc(CC(=O)Nc2ccc(Cl)cc2)cc1)C(=O)O please
[A] 163 °C

[Q] Entry CC(=O)NNC1=Nc2sccc2C(c2ccccc2)=NC1 please
[A] 194 to 196 °C

[Q] Entry N#Cc1ccc(C(=O)N[C@H]2CC[C@H](CCN3CCN(c4nccc5c4OCC5)CC3)CC2)cc1 please
[A] 262 °C

[Q] Entry COc1cc(/C=C/C(=O)CC(=O)C2CC2)ccc1O please
[A] 74.5 to 79 °C
